Target system: T1, human wild-type IL-13 (mature chain) (human, UniProt P35225 35-146, Biotinylated on amines (NHS-LC-biotin) in the competition assays. The letters are unchanged.)
T1 construct: wild type has R at 110; Bought (Peprotech, R&D Systems); also called wt IL-13; IL-13-WT
Procedure text: Luminex competition, inhibition of 500 pg/ml biotinylated wt IL-13 binding to IL-13Ra2
Recorded endpoint: IC50 (ng/mL)
Just the number please, in ng/mL, no unit attached.

Bench note: what IC50 did mAb Lc-2B03 with Hc2 M34Q, M100L (antibody, V domains shown, full-length mAb, made in HEK293 and CHO) VH: QVTLKESGPVLVKPTETLTLTCTVSGFSLSTYGQGVGWIRQPPGKALEWLAHIWWDDVKRYNPALKSRLTISKDTSKSQVVLTMTNMDPVDTATYYCARLGSDYDVWFDYWGQGTLVTVSS VL: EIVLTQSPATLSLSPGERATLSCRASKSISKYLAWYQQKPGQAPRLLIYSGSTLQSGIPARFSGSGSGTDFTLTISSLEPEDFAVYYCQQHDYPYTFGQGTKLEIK show?
1.71

Try this binder next: mAb Lc-2B03 with Hc2 M34V, M100L (antibody, V domains shown, full-length mAb, made in HEK293 and CHO) VH: QVTLKESGPVLVKPTETLTLTCTVSGFSLSTYGVGVGWIRQPPGKALEWLAHIWWDDVKRYNPALKSRLTISKDTSKSQVVLTMTNMDPVDTATYYCARLGSDYDVWFDYWGQGTLVTVSS VL: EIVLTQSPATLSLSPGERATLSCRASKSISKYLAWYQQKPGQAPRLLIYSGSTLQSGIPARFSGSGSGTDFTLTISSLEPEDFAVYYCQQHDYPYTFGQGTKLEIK
2.13

Do the same for mAb Lc-2B03 with Hc2 T31S, M34S, M100L, V106I (antibody, V domains shown, full-length mAb, made in HEK293 and CHO) VH: QVTLKESGPVLVKPTETLTLTCTVSGFSLSSYGSGVGWIRQPPGKALEWLAHIWWDDVKRYNPALKSRLTISKDTSKSQVVLTMTNMDPVDTATYYCARLGSDYDIWFDYWGQGTLVTVSS VL: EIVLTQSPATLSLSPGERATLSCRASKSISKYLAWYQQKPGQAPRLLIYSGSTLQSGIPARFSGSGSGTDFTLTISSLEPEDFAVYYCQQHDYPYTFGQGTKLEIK please
1.68

Next binder: mAb Lc-2B03 with Hc2 T31S, M34S, M100L (antibody, V domains shown, full-length mAb, made in HEK293 and CHO) VH: QVTLKESGPVLVKPTETLTLTCTVSGFSLSSYGSGVGWIRQPPGKALEWLAHIWWDDVKRYNPALKSRLTISKDTSKSQVVLTMTNMDPVDTATYYCARLGSDYDVWFDYWGQGTLVTVSS VL: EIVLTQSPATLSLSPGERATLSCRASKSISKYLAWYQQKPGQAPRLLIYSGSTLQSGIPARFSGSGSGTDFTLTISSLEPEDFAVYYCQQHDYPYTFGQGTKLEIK
1.72
